- protocol: Biodistribution in ICR mice after an iv injection
- Assay type: in vivo
- experimental conditions: Brain, 30 min after iv injection
- From the text: Biodistribution in ICR Mice After an iv Injection of [^18F][4-(6-{2-[2-(2-Fluoro-ethoxy)-ethoxy]-ethoxy}-naphthalen-2-yl)-phenyl]-methyl-amine in 1% EtOH/0.1% BSA in Water (% dose/organ, avg of 3 mice±SD) (% dose/g, avg of 3 mice±SD) Biodistribution in ICR Mice After an iv Injection of [^18F]19a in 3% EtOH/0.1% BSA in Water Biodistribution in ICR Mice After an iv Injection of [^18F]34a in 5% EtOH/0.1% BSA in Water […]

compound: CNc1ccc(-c2ccc3nc(OCCOCCOCC[18F])ccc3c2)cc1 [[^18F]34a]
% dose/g, % dose/g: 2.23
//
compound: CNc1ccc(-c2ccc3cc(OCCOCCOCCF)ccc3c2)cc1
% dose/g, % dose/g: 2.15
//
compound: CNc1ccc2cc(-c3ccc(OCCOCCOCC[18F])cc3)ccc2c1 [[^18F]19a]
% dose/g, % dose/g: 1.29
//
compound: CN(C)c1ccc(-c2ccc3nc(OCCOCCOCC[18F])ccc3c2)cc1 [[^18F]32a]
% dose/g, % dose/g: 2.33

###

- protocol: Biodistribution in ICR mice after an iv injection
- Assay type: in vivo
- experimental conditions: Lung, 30 min after iv injection

molecule: CNc1ccc2cc(-c3ccc(OCCOCCOCC[18F])cc3)ccc2c1 [[^18F]19a]
% dose/organ, % dose/organ: 0.67

molecule: CN(C)c1ccc(-c2ccc3nc(OCCOCCOCC[18F])ccc3c2)cc1 [[^18F]32a]
% dose/organ, % dose/organ: 0.42

molecule: CNc1ccc(-c2ccc3cc(OCCOCCOCCF)ccc3c2)cc1
% dose/organ, % dose/organ: 0.53

molecule: CNc1ccc(-c2ccc3nc(OCCOCCOCC[18F])ccc3c2)cc1 [[^18F]34a]
% dose/organ, % dose/organ: 0.54

###

- protocol: Biodistribution in ICR mice after an iv injection
- Type: in vivo
- experimental conditions: Spleen, 2 hr after iv injection
Listing of recorded % dose/g by entry.

compound: CNc1ccc(-c2ccc3nc(OCCOCCOCC[18F])ccc3c2)cc1 [[^18F]34a]
% dose/g (% dose/g): 1.48
--
compound: CNc1ccc(-c2ccc3cc(OCCOCCOCCF)ccc3c2)cc1
% dose/g (% dose/g): 2.08
--
compound: CNc1ccc2cc(-c3ccc(OCCOCCOCC[18F])cc3)ccc2c1 [[^18F]19a]
% dose/g (% dose/g): 3.38
--
compound: CN(C)c1ccc(-c2ccc3nc(OCCOCCOCC[18F])ccc3c2)cc1 [[^18F]32a]
% dose/g (% dose/g): 1.16

###

- protocol: Biodistribution in ICR mice after an iv injection
- Format: in vivo
- experimental conditions: Kidney, 2 min after iv injection
Listing of recorded % dose/g by entry.
measurement kind: % dose/g (% dose/g)

compound: CNc1ccc2cc(-c3ccc(OCCOCCOCC[18F])cc3)ccc2c1 [[^18F]19a]
measurement unit: % dose/g
value reported: 7.88

compound: CNc1ccc(-c2ccc3nc(OCCOCCOCC[18F])ccc3c2)cc1 [[^18F]34a]
measurement unit: % dose/g
value reported: 13.6

compound: CN(C)c1ccc(-c2ccc3nc(OCCOCCOCC[18F])ccc3c2)cc1 [[^18F]32a]
measurement unit: % dose/g
value reported: 13.0

compound: CNc1ccc(-c2ccc3cc(OCCOCCOCCF)ccc3c2)cc1
measurement unit: % dose/g
value reported: 8.88
